test.target: human GluN1/GluN2A (Homo sapiens, UniProt Q05586+Q12879, Q12879:A548T)
Construct: full open reading frames in pCI-neo, cRNA in Xenopus laevis oocytes; di-heteromeric tetramer
protocol.details: two-electrode voltage clamp, Xenopus oocytes
reported.property: pEC50
Note: pEC50 values are expressed as the negative base-10 logarithm of concentration in M.

**Query** Record NCC(=O)O : what is its pEC50 with human GluN1/GluN2A (Homo sapiens, UniProt Q05586+Q12879, Q12879:A548T)?
**Result** 5.62

---

test.target: rat GluN1/GluN2D (Rattus norvegicus, UniProt P35439+Q62645)
Construct: full-length subunits in pCI-neo, cRNA in Xenopus laevis oocytes; di-heteromeric tetramer
Sequence (Q62645 28-1323, other chains not shown): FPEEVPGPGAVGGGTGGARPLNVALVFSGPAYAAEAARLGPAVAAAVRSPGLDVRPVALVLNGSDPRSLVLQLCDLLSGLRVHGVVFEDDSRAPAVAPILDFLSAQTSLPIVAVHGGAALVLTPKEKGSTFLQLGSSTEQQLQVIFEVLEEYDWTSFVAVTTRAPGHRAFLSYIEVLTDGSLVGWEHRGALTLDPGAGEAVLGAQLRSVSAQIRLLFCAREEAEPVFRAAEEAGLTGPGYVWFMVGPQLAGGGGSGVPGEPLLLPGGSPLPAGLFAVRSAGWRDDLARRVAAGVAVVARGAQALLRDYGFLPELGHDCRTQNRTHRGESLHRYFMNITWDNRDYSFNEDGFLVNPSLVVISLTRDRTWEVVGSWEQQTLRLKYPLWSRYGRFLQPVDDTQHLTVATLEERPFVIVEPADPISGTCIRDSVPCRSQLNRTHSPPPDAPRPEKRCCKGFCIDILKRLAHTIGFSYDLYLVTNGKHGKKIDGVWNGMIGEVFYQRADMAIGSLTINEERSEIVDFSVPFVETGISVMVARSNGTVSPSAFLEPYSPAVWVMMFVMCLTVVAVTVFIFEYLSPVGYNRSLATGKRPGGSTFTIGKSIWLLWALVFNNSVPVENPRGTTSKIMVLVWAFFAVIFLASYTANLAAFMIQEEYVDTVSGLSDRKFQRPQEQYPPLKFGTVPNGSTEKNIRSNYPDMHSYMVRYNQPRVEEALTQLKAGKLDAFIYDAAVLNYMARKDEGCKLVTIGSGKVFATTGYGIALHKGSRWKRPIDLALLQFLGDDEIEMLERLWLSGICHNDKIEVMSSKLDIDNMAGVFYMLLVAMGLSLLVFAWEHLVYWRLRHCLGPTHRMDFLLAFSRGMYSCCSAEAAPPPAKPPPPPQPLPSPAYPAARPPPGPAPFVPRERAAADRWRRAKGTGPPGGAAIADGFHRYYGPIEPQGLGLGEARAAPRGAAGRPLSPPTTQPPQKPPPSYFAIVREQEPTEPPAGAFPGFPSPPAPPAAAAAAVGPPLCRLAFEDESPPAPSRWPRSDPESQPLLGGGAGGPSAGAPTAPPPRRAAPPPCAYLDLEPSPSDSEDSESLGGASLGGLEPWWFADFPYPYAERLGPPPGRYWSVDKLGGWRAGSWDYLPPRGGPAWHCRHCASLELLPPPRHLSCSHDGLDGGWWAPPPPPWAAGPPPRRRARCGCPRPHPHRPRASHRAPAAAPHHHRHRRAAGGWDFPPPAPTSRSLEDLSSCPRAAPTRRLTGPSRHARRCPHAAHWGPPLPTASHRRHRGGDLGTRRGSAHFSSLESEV
protocol.details: two-electrode voltage clamp, Xenopus oocytes
reported.property: pEC50
Note: pEC50 values are expressed as the negative base-10 logarithm of concentration in M.

**Query** What measured pEC50 goes with N[C@@H](CCC(=O)O)C(=O)O [Glutamate] ?
**Result** 6.40

---

test.target: human GluN1/GluN2A (Homo sapiens, UniProt Q05586+Q12879)
Construct: gene GRIN1; full open reading frames in pCI-neo, cRNA in Xenopus laevis oocytes; di-heteromeric tetramer
Sequence (Q12879 23-1464, other chains not shown): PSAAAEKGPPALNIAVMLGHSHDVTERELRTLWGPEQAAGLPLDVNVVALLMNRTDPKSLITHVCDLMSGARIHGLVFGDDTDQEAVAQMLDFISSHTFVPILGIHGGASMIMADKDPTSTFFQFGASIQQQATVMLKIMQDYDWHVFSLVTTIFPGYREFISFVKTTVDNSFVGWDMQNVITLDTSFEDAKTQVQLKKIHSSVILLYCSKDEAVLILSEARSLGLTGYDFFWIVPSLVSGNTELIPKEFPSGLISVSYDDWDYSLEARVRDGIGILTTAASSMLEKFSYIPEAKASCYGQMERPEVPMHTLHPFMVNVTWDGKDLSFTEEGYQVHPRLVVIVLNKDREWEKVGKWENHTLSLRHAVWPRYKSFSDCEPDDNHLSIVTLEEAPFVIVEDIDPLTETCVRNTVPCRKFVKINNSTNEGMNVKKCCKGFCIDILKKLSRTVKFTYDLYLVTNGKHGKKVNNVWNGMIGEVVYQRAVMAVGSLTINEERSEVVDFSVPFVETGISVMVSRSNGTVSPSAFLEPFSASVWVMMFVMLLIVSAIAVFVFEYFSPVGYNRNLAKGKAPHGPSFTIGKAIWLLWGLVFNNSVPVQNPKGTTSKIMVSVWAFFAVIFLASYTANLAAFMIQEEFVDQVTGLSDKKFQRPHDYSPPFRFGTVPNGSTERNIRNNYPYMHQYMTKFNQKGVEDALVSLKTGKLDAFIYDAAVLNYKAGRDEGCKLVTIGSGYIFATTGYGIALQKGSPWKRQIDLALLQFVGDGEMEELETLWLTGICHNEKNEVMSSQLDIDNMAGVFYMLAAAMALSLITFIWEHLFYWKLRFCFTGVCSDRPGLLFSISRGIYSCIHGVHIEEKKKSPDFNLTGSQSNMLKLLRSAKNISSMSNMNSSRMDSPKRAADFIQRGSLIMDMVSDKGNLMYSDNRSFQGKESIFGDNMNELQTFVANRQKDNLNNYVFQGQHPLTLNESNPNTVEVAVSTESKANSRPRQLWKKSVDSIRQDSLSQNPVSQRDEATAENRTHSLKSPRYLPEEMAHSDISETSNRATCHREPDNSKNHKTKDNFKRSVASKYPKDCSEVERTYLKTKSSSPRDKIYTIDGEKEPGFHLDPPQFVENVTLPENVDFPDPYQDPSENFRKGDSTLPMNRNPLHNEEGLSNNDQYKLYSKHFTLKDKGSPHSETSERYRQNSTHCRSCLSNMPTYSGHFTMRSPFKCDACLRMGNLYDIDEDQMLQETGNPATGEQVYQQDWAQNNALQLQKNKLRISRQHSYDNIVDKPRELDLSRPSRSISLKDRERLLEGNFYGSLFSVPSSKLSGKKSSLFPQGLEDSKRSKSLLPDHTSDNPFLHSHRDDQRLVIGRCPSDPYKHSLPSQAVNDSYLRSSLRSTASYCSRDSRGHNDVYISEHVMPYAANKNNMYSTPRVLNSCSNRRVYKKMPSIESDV
protocol.details: two-electrode voltage clamp, Xenopus oocytes
Format: cell-based
study.conditions: channel blocker; -40 mV; pH 7.4; no Mg2+; 23 °C; read-out: IC50 (n; max inhibition) / GluN2A-WT
reported.property: pIC50
Note: pIC50 values are expressed as the negative base-10 logarithm of concentration in M.

**Query** What measured pIC50 goes with COc1ccc2c(c1)[C@]13CCCC[C@@H]1[C@H](C2)N(C)CC3 ?
**Result** 4.74

---

test.target: human GluN1/GluN2A (Homo sapiens, UniProt Q05586+Q12879)
Construct: gene GRIN1; full open reading frames in pCI-neo, cRNA in Xenopus laevis oocytes; di-heteromeric tetramer
protocol.details: two-electrode voltage clamp, Xenopus oocytes
Format: cell-based
reported.property: IC50 (µM)
Just the number please, in µM, no unit attached.

**Query** Record CNC1(c2ccccc2Cl)CCCCC1=O (stereo not shown) : what is its IC50 with human GluN1/GluN2A (Homo sapiens, UniProt Q05586+Q12879)?
**Result** 4.7

---

test.target: human GluN1/GluN2A (Homo sapiens, UniProt Q05586+Q12879, Q05586:P557R)
Construct: gene GRIN1; full open reading frames in pCI-neo, cRNA in Xenopus laevis oocytes; di-heteromeric tetramer
protocol.details: two-electrode voltage clamp, Xenopus oocytes
Format: cell-based
reported.property: EC50 (nM)
Just the number please, in nM, no unit attached.

**Query** What measured EC50 goes with NCC(=O)O [Glycine] ?
**Result** 180

---

test.target: human GluN1/GluN2A (Homo sapiens, UniProt Q05586+Q12879)
Construct: full open reading frames in pCI-neo, cRNA in Xenopus laevis oocytes; di-heteromeric tetramer
protocol.details: two-electrode voltage clamp, Xenopus oocytes
reported.property: EC50 (nM)
Just the number please, in nM, no unit attached.

**Query** What measured EC50 goes with NCC(=O)O ?
**Result** 1400

---

test.target: human GluN1/GluN2B (Homo sapiens, UniProt Q05586+Q13224, Q05586:D552E)
Construct: full open reading frames in pCI-neo, cRNA in Xenopus laevis oocytes; di-heteromeric tetramer
Sequence (Q13224 27-1484, other chains not shown): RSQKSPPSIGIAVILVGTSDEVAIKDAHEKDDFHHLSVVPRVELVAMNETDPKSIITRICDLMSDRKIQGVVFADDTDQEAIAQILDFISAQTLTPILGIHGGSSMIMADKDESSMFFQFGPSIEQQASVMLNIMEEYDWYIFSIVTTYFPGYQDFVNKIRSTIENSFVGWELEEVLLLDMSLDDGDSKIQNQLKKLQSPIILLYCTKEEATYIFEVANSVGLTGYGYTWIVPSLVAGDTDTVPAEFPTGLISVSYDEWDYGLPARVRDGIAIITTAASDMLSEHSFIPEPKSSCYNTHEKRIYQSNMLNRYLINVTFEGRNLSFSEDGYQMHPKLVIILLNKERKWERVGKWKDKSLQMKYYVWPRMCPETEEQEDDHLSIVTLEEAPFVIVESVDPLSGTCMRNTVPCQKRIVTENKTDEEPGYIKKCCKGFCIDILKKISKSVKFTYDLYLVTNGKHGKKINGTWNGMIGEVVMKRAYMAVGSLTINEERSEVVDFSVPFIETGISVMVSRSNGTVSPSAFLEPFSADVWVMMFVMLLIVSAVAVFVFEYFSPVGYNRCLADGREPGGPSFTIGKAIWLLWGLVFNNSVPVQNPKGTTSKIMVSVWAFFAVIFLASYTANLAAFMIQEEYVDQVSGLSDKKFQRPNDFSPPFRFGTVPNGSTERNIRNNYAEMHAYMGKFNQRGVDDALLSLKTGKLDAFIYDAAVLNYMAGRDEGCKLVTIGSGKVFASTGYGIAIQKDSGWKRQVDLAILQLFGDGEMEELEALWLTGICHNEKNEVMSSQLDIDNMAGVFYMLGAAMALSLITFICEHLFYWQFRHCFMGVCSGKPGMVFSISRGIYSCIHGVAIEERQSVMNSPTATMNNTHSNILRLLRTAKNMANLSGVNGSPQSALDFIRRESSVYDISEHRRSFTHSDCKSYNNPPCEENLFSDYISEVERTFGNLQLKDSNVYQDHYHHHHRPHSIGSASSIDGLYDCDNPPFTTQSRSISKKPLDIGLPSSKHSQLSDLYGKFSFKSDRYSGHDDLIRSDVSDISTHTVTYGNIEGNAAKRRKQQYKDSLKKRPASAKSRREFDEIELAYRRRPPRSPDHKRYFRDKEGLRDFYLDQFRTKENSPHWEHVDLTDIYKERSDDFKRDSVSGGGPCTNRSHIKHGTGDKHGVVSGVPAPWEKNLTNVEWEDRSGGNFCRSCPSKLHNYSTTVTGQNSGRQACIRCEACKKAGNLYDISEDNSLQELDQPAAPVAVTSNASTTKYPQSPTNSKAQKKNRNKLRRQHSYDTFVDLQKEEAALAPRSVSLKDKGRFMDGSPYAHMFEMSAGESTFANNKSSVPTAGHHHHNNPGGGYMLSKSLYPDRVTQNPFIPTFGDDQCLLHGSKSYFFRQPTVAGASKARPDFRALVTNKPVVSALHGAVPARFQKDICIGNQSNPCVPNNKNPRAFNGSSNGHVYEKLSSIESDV
protocol.details: two-electrode voltage clamp, Xenopus oocytes
reported.property: EC50 (nM)
Just the number please, in nM, no unit attached.

**Query** Record NCC(=O)O [Glycine] : what is its EC50 with human GluN1/GluN2B (Homo sapiens, UniProt Q05586+Q13224, Q05586:D552E)?
**Result** 660
